assayNotes: in vivo
experimentalSetup: female, ICR CD-1, mouse, plasma, sc, 50 mg/kg, Plasma concentration MKM, s.c. 50 mg/kg, Time 0.5 (h), Mouse 3
Where a SMILES comes first, the peptide text is derived from it. Bridges are numbered along the chain shown (N, C = ends). [ ]: non-standard residue; d: D form. dOrn = NCCC[C@@H](N)C(=O)O

>  <molecule>
C[C@@H](O)[C@@H]1NC(=O)[C@@H](CCCNC(=N)N)NC(=O)[C@@H](CCCNC(=N)N)NC(=O)[C@@H](CC(N)=O)NC(=O)[C@@H](NC(=O)[C@@H](Cc2ccccc2)NC(=O)[C@@H](CCCN)NC(=O)[C@H](N)CCCNC(=N)N)[C@@H](C)OC(=O)[C@H](Cc2c[nH]cn2)NC1=O [MKM-A, manikomycin] (H-[dR][dOrn][dF]T[dN][dR][dR]TH; ester 4-C)

>  <level at 0.5 h>
9170 ng/mL

$$$$
